# assay_remarks: soluble on expression in E. coli; label from the status in PepcDB or PDB records
metric: soluble on expression in E. coli

- sequence: "SCQSEKHPGPELQAAEKWLYFPQLALWRRLGQLSCMSRPALNLRSWLLTILHYLLPFRVLGPHSQVGWRPLSRVSLYKTVPTRLLSRACGRLNQVELPYWLWRPVYSLYIWTFGVNMTEAAVEDLHHYHNLSEFFWHQPIMARSSPLGR"
  metric: "soluble on expression in E. coli"
  result: "not soluble"
- sequence: "MGSDKIHHHHHHMKGFITNIQRMSIHDGPGIRSTIFLKGCNLRCKWCHNPETWSMKPQLQYIEDKCIHCFSCITVCEYEVLFIDSNRLSIHRERCTDCGKCTERCTSGALSWIGKEVDSSDIIHEILQDLIYYQKSGGGITLSGGEPLQQKDFALDILQKCREHRIHTAVETNLLTDVNTLEAFLPWVDLWMCDFKMADDTLHRKWTGHSNVPIIKNLEFLAKQAVPLTIRTPVIPNVNDSEEAIESICRFIRQLPNQPAYELLGFHSLGFVKFENLGMKNPLSNSAFLKKGQLQKLKEILIRYNLNNNKK"
  metric: "soluble on expression in E. coli"
  result: "not soluble"

====

# assay_remarks: soluble on expression in E. coli; label from the status in PepcDB or PDB records
metric: soluble on expression in E. coli

# count of solved cases: 8
- sequence: "MSLKEFDFIKRYLQTGTDNDVVLGIGDDAAIVRPREGFDLCFSADMLLKDRHFFADVKPEDLAWKVLAVNISDMAAMGAIPRWVLLSAALPELDEVWLKRFCGSFFGLAKKFGVTLIGGDTTKGDMAFNVTIIGELPKGRALRRDAAVAGDDIWVSGRIGMAAAALNCRLKRCVLPDEVFAECEQKLLHPEPRVGLGLALLPFARAAQDVSDGLAQDLGHILTASGKGAEIWADSLPSLSVLKDILPRAQWLSYTLAGGDDYELVFTAPESCRSRVFDAAERCGVPVTRIGKINGGCRLKVLDADGRELELHSLGFDHFGEGHHHHHH"
  soluble on expression in E. coli: "soluble"
- sequence: "MGSDKIHHHHHHMELFRLHYFLELCKVKQFTKAAENLAISQAALSKQIKILEATLGAELFNRQGQTTTLTPAGLILEKYCWRITNELVSIEEELKEINHSSNHIYVATYLCDLEYKLNDLLMTTLTDRSSNLQVHTIITENILQSLETMDADFGISFADLPLPEHIGKIDLFTANYQFILRNDHPALAKATTEEILKELTMYPFVRLNTEFSEQNKLTNWLDTTFSNFSPEKVIQVDTLSLITHLVSHSDSFAIVPEYTNIQLLDNSIHTLTYQELPKRNMAVYYLKERYMSRQLQQLLAECQKQFQ"
  soluble on expression in E. coli: "not soluble"
- sequence: "MSDTVVASAAVQAPAKTVKSPKAAKTTKVPKAKKPVAHPPYINMVTAAINGLKERKGSSKIAILKYITKNYNVGDQIIKINARLRDTLNKGVVSKALVQSVGTGASGRFRVTEKKAAAAKKPVAKKAATGEKKAKKPVAQKAATGEKKAKKTTATKTKKTADKVKKVKSPKKIAKPTAKKVAKSPAKKSAPKKAAAAKPAKKAVAPKT"
  soluble on expression in E. coli: "soluble"
- sequence: "MTVTFQNNPVSISGSFPKVGDRLPSFTLCGADLNDLSNEDFKGKKIVMSIFPSIDTPVCSKSVKVLQNALMTRNDTVLLCVSADLPFAMSRFCTEHAVANVTNASFFREPAFTERFGVNLNEGALRGLAARAVIVADEFGVITHSELVNEITNEPDYDRILMSL"
  soluble on expression in E. coli: "not soluble"
- sequence: "MAHHHHHHMSIIHYSLQYNCKSFCIFTYFLIPSYWKCSTYNIPQYRSQNKNNFISFCIQFLVQQCVLIIHKVFNLPNTSLRNYFPQINKQINNQTFLNVVVKRKLNHGKLWGAHV"
  soluble on expression in E. coli: "soluble"
- sequence: "MSLKKIIITGALGQIGTELVIKCRERYGTENVLATDIRKPEPHSPVKNGPFEILDVTDRNRLFETVRYFNADTLMHMAALLSATAEKKPLVAWDLNMGGLINTLEAARRYQLKYFTPSSIGAFGISTPKVNTPQLTIQQPTTMYGINKVTGELLCQYYYVKFGVDTRSVRFPGLISHVKEPGGGITDYAVDMYFKAVRKGHYTSYINRYTYMDMMYMEDAIDAIIKLMEEDSVKLKTRNGYNLSAMSIEPEMLKQAIQVYYPDFTLDYDIDLERQDIALSWPDSIDTSCAQEEWGFDPKYDLPTMTKVMLEAIEKKQKEEGHHHHHH"
  soluble on expression in E. coli: "soluble"
- sequence: "MFNIMLVKFVVIFALILASCRVEADNTSVLPEGFVDAAQRSTHTNNWAVLVDASRFWFNYRHVANVLSIYRSVKRLGIPDSQIILMIADDMACNARNPRPGQVYNNANQHINVYGDDVEVDYRGYEVTVENFVRLLTGRTQNGTARSKKLLSDAGSNVLIYLTGHGGDGFLKFQDSEEITSQELADGIQQMWEKKRYNELFFMVDTCQAASLYEKFTSPNVLAVASSLVGEDSLSHHVDPSIGVYMIDRYTYYALEFLEKVQPFSKRTIGEFLQVCPKRVCISTVGVRKDLYPRDPHKVPITDFFGAIRPTRVSTDRINVTLANEELEHHHHHH"
  soluble on expression in E. coli: "not soluble"
- sequence: "MGSDKIHHHHHHMETVQYDYKQILQRIVAEIKSSRIQVARKITSATMELYWNIGKELSAQHLSKGYGAQVVEMLASDLQKEFPGTTGFSSRNLWEMKRFYERYCGESRKLQQSVAVLPWGHNLLLMSKCKNPEEIYFYATRSTELGWTRDVLLNYIKADAFSTREEQPKLHNFKETLPECLQEQAEEMLKSRYNLEFLGITKPILELELERRLVDKIKTFLLEMGKGFSFIGNQYRLVLEDKEYFVDMLFFNRCTRSLIALELKIGSFQPEYVGKMNFYLNLLDRQVKMPDENPSIGIILCADRNNVEVEVALQGSTAPIGVSEYSYLIPQKQIKELINNELSGNKE"
  soluble on expression in E. coli: "not soluble"

Ask: Can you share its soluble on expression in E. coli? I mean this sequence: MGSDKIHHHHHHLKALVVGLGSIGVRHLNNLHALEVRELGVVRSRNFPPPTEIVPKDIAVFQDIDLALSRKFDLVVVANPTSLHLETLIKALRAGSHVYVEKPVAHEKRRLSELTRYVSLDGPRVLVGCQFRMHPGLRKIEGWIRQGKLGKIHSVQVDLGEYLPGWHPWEDYRQSYAARADQGGGVVLTLIHELDYLHWLFGKPKSVFAIGGHRTSLDITAEDTALITFETEQDICVQLRMDYWRKPPVRHMNIVAENAIVDWDYPTRLTTLRQNGQVLDEMVLVPSWDRNELFLSMMKEFIEGIPRGSIPRVTLRDGIEVLKTALAVKKSLQTHRKVAL
Reply: not soluble

Ask: Report soluble on expression in E. coli for MTRAEVGLVWAQSTSGVIGRGGDIPWSVPEDLTRFKEVTMGHTVIMGRRTWESLPAKVRPLPGRRNVVVSRRPDFVAEGARVAGSLEAALAYAGSDPAPWVIGGAQIYLLALPHATRCEVTEIEIDLRRDDDDALAPALDDSWVGETGEWLASRSGLRYRFHSYRRD please.
Reply: soluble

Ask: # get_value(readout='soluble on expression in E. coli', item= MSQPVAFVTGCSSGIGRALADAFQRAGYRVWASARKEDDVRALAEAGFQAVQLDVNDAAALARLAEELGVEAAGLDVLVNNAGYGAMGPLLDGGVEAMRRQFETNVFAVVGVTRALFPLLRRKSGLVVNVGSVSGVLVTPFAGAYCASKAAVHALSDALRLELAPFGVEVLEVQPGAIASNFGASASREMDSVVDERSPWWPLRRQIQARAAASQDNPTSAEDFARQLLAAVQRRPRPPLVRIGNGSRALPALARWLPRGLLERLLKKRFGLDTRL )
Reply: not soluble
